Reported IC50 values, KIF18A (Homo sapiens (Human), UniProt Q8NI77).

CC1Cn2c(cc3c(NC(=O)c4ccc(NS(=O)(=O)CCO)cc4N4CCC5(CC4)CC5)cccc32)C(C)O1 (single isomer, unassigned) [Compound 312-P1]; 50 to 500 nM

Query: Return the recorded IC50 value; entry: O=C(Nc1cccc2c1oc(=O)n2CC1CC1)c1ccc(NS(=O)(=O)CCO)cc1N1CCC2(CC1)CC2
Reply: ≤ 50 nM

Query: Return the recorded IC50 value; entry: O=C(Nc1ccnc2c1cc1n2CCOC1)c1ccc(NS(=O)(=O)CCO)cc1N1CCC2(CC1)CC2
Reply: ≤ 50 nM

Query: Return the recorded IC50 value; entry: CC1(C)Cn2c(cc3c(NC(=O)c4ccc(NS(=O)(=O)CCO)cc4N4CCC5(CC4)CC5)ccc(F)c32)CO1
Reply: 50 to 500 nM

----------
- system.tested: KIF18A (Homo sapiens (Human), UniProt Q8NI77)
- Sequence (Q8NI77 whole entry): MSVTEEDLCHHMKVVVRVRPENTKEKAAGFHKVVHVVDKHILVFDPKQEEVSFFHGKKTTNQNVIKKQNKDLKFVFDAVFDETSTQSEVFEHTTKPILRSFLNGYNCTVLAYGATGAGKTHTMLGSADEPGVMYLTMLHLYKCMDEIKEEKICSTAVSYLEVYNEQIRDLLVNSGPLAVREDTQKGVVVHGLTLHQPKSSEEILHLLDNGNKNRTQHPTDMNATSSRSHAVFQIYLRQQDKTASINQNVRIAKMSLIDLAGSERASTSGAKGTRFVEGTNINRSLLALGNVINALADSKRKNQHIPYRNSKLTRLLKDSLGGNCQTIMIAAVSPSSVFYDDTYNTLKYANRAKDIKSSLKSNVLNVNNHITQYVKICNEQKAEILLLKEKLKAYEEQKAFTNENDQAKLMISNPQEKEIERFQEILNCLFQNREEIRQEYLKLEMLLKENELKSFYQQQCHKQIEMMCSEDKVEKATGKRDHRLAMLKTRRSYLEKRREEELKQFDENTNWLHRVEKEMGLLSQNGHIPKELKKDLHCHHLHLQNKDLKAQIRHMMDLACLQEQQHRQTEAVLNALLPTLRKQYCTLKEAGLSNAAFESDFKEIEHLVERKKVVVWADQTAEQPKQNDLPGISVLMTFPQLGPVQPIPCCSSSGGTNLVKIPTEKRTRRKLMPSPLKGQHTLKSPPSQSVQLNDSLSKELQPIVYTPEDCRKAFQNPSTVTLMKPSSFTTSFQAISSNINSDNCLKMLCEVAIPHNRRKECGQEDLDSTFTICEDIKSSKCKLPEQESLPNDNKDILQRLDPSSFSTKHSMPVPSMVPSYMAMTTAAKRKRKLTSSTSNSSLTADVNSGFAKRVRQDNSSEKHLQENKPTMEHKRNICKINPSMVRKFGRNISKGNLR
- Sequence (P02550 whole entry partner): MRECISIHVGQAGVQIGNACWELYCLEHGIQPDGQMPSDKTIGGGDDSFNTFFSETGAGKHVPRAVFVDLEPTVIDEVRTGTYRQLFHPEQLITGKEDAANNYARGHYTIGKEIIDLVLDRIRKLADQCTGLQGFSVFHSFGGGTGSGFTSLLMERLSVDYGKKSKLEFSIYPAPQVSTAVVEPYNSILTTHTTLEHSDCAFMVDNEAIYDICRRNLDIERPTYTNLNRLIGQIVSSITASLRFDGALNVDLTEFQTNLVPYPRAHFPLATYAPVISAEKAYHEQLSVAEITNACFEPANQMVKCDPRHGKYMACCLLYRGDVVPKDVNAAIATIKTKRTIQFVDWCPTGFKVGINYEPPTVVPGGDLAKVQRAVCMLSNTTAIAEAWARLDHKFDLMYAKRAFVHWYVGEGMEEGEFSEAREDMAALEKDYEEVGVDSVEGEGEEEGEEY
- Sequence (P02554 whole entry partner): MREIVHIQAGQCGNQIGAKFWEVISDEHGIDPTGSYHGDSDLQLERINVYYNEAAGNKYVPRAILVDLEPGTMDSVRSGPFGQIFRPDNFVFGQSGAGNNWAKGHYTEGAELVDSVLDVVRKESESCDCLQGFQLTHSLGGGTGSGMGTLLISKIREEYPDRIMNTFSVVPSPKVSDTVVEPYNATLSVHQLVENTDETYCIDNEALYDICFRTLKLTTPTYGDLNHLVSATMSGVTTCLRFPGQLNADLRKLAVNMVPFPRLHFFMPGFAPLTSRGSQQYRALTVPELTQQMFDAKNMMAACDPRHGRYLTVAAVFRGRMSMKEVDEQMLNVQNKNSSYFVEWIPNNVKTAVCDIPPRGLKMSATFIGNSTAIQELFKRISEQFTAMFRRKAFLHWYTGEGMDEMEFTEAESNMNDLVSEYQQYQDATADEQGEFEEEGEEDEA
pIC50: −log10 of the molar value.
value.type: pIC50

Past entries and their recorded results:
Cn1cnc(-c2ccc(NC(=O)c3ccc(NS(=O)(=O)CCO)cc3N3CCC4(CC3)CC4)c3cc4n(c23)CC(C)(C)OC4)c1 [Example 529]; 6.30 to 7.30
CC1Cn2c(cc3c(NC(=O)c4ccc(NS(=O)(=O)CCO)cc4N4CCC5(CC4)CC5)cccc32)C(C)O1 (single isomer, unassigned) [Compound 312-P2B]; 6.30 to 7.30
O=C(Nc1ccc(OC(F)(F)F)c2c1cc1n2CCC(F)(F)C1)c1ccc(NS(=O)(=O)CCO)cc1N1CCC(=C(F)F)CC1 [Example 585]; 6.30 to 7.30
CC1OCCn2c1cc1c(NC(=O)c3ccc(NS(=O)(=O)CCO)cc3N3CCC4(CC3)CC4)cccc12 (stereo not drawn) [Compound 311-P2]; ≥ 7.30
CC1(C)Cn2c(cc3c(NC(=O)c4ccc(NS(=O)(=O)CCO)cc4N4CCC5(CC4)CC5)cccc32)CO1 [Example 371]; ≥ 7.30

Query: Param request: pIC50 | system KIF18A (Homo sapiens (Human), UniProt Q8NI77) | item CC1(C)Cn2c(cc3c(NC(=O)c4ccc(NS(=O)(=O)CCO)cc4N4CCC5(CC4)CC5)ccc(OC(F)F)c32)CO1 [Example 523]
Reply: 6.30 to 7.30

----------
- assay.explanation: PK study in ICR mice
- Assay type: in vivo, mouse
- applied.conditions: plasma, route and dose not given
// reported Cmax per item
Write down the numeric answer in ng/mL and omit the unit.

Past entries and their recorded results:
O=C(Nc1cccc2c1cc1n2CC2CCC1O2)c1ccc(NS(=O)(=O)CCO)cc1N1CCC(=C(F)F)CC1 (centres unmarked) [Compound 398]; 1410
CC1(C)Cn2c(cc3c(NC(=O)c4ccc(NS(=O)(=O)CCO)cc4N4CCC5(CC4)CC5)ccc(OC(F)F)c32)CO1 [Example 523]; 7088
N#Cc1ccc(NC(=O)c2ccc(NS(=O)(=O)CCO)cc2N2CCC3(CC2)CC3)c2cc3n(c12)CCC(F)(F)C3 [Example 379]; 4043
COc1ccc(NC(=O)c2ccc(NS(=O)(=O)CCO)cc2N2CCC(=C(F)F)CC2)c2cc3n(c12)CCOC3 [Compound 405]; 4205
N#Cc1ccc(NC(=O)c2ccc(NS(=O)(=O)CCO)cc2N2CCC(=C(F)F)CC2)c2cc3n(c12)CCC(F)(F)C3 [Example 378]; 5253

Query: Return the recorded Cmax value; entry: O=C(Nc1cccc2c1cc1n2CCOC1)c1ccc(NS(=O)(=O)CCO)cc1N1CCC(=C(F)F)CC1 [Example 319]
Reply: 3717

Query: Return the recorded Cmax value; entry: O=C(Nc1ccc(F)c2c1nc1n2CCOC1)c1ccc(NS(=O)(=O)CCO)cc1N1CCC(=C(F)F)CC1 [Example 323]
Reply: 762

Query: Return the recorded Cmax value; entry: COc1ccc(NC(=O)c2ccc(NS(=O)(=O)CCO)cc2N2CCC(=C(F)F)CC2)c2cc3n(c12)CC(C)(C)OC3 [Example 465]
Reply: 5780

----------
// reported pIC50 per item
- System: HCC1395 cells
- assay.explanation: HCC1395 cell proliferation (Cell Titer-Glo, 6 days)
- Type: cell-based
- applied.conditions: Homo sapiens, HCC1395, 144 h, KIF18A-insensitive tumor cells
pIC50: −log10 of the molar value.

Cc1cc(NC(=O)c2c(N)cc(NS(=O)(=O)CCO)cc2N2CCC3(CC2)CC3)nc(N2CCC(F)(F)CC2)n1; < 5.30
O=C(Nc1cccc2c1cc1n2CCOC1)c1ccc(NS(=O)(=O)CCO)cc1N1CCC2(CC1)CC2; < 5.30

Okay, now this compound:
Query: Return the recorded pIC50 value; entry: O=C(Nc1cccc2c1nc1n2CCOC1)c1ccc(NS(=O)(=O)CCO)cc1N1CCC2(CC1)CC2
Reply: < 5.30

----------
- assay.explanation: PK study in ICR mice
- Type: in vivo, mouse
- applied.conditions: both sexes, mouse, plasma, route and dose not given, read-out: Cmax
Mark 0 for Cmax values under 4000 ng/mL, and 1 for everything at or above.

Observe how each entry below is paired with its result.
CC1(C)Cn2c(cc3c(NC(=O)c4ccc(NS(=O)(=O)CCO)cc4N4CCC5(CC4)CC5)cccc32)CO1 [Example 371]; 0
O=C(Nc1cccc2c1cc1n2CCOC1)c1ccc(NS(=O)(=O)CCO)cc1N1CCC2(CC1)CC2 [Example 235]; 0

Query: Entry O=C(Nc1cccc2c1cc1n2CC2(CC2)OC1)c1ccc(NS(=O)(=O)CCO)cc1N1CCC(=C(F)F)CC1 [Example 485] : is its Cmax no less than 4000 ng/mL?
Reply: 0

Query: Entry O=C(Nc1cccc2c1cc1n2CCC(F)(F)C1)c1ccc(NS(=O)(=O)CCO)cc1N1CCC(=C(F)F)CC1 [Example 374] : is its Cmax no less than 4000 ng/mL?
Reply: 0

----------
Reported IC50 values, KIF18A (Homo sapiens (Human), UniProt Q8NI77).

Past entries and their recorded results:
O=C(Nc1cccc2c1cc1n2CCOC1)c1ccc(NS(=O)(=O)CCO)cc1N1CCC2(CC1)CC2; ≤ 50 nM
COc1ccc(NC(=O)c2ccc(NS(=O)(=O)CCO)cc2N2CCC(=C(F)F)CC2)c2nc3n(c12)CC(C)(C)OC3; 50 to 500 nM
CC1(C)Cn2c(cc3c(NC(=O)c4ccc(NS(=O)(=O)CCO)cc4N4CCC(=C(F)F)CC4)ccc(F)c32)CO1; 50 to 500 nM
COC1c2cc3c(NC(=O)c4ccc(NS(=O)(=O)CCO)cc4N4CCC5(CC4)CC5)cccc3n2CCC1(F)F (single isomer, unassigned) [Compound 385-P2]; 50 to 500 nM
CC1(C)Cn2c(cc3c(NC(=O)c4ccc(NS(=O)(=O)CCO)cc4N4CCC5(CC4)CC5)ccc(Cl)c32)CO1; 50 to 500 nM

Query: Param request: IC50 | system KIF18A (Homo sapiens (Human), UniProt Q8NI77) | item CC1Cn2c(nc3c(NC(=O)c4ccc(NS(=O)(=O)CCO)cc4N4CCC5(CC4)CC5)cccc32)C(C)O1 (stereo not shown)
Reply: ≤ 50 nM

Query: Param request: IC50 | system KIF18A (Homo sapiens (Human), UniProt Q8NI77) | item CC(C)(C)Cn1ccc2c(NC(=O)c3ccc(NS(=O)(=O)CCO)cc3N3CCC4(CC3)CC4)cccc21
Reply: 500 to 5000 nM

Query: Param request: IC50 | system KIF18A (Homo sapiens (Human), UniProt Q8NI77) | item N#Cc1ccc(NC(=O)c2ccc(NS(=O)(=O)CCO)cc2N2CCC3(CC2)CC3)c2cc3n(c12)CCC(F)(F)C3O (stereo not shown)
Reply: 50 to 500 nM

Query: Param request: IC50 | system KIF18A (Homo sapiens (Human), UniProt Q8NI77) | item CC1(C)OCCn2c1cc1c(NC(=O)c3ccc(NS(=O)(=O)CCO)cc3N3CCC4(CC3)CC4)cccc12
Reply: 50 to 500 nM

Query: Param request: IC50 | system KIF18A (Homo sapiens (Human), UniProt Q8NI77) | item CC1=CCCn2c1cc1c(NC(=O)c3ccc(NS(=O)(=O)CCO)cc3N3CCC4(CC3)CC4)cccc12
Reply: 50 to 500 nM

----------
- system.tested: KIF18A (Homo sapiens (Human))
- assay.explanation: KIF18A ATPase activity under tubulin stimulation (ADP-Glo assay)
- Assay type: biochemical
- applied.conditions: KIF18A 30 nM, ATP 150 μM, pig microtubules
value.type: IC50

O=C(Nc1cccc2c1ccn2CC1(C(F)(F)F)CC1)c1ccc(NS(=O)(=O)CCO)cc1N1CCC2(CC1)CC2 [Example 284]; 500 to 5000 nM
CC(C)Oc1ccc(NC(=O)c2ccc(NS(=O)(=O)CCO)cc2N2CCC(=C(F)F)CC2)c2cc3n(c12)CC(C)(C)OC3 [Example 532]; 50 to 500 nM
O=C(Nc1ccnc(N2CCC(F)(F)CC2)c1)c1ccc(NS(=O)(=O)CCO)cc1OC1CCOCC1 [Example 23]; > 5000 nM
CC1Cn2c(cc3c(NC(=O)c4ccc(NS(=O)(=O)CCO)cc4N4CCC5(CC4)CC5)cccc32)C(C)O1 (single isomer, unassigned) [Compound 312-P2A]; ≤ 50 nM
Cc1cc(NC(=O)c2ccc(NS(=O)(=O)CCO)cc2N2CCC3(CC2)CC3)c2ccn(CC3CC3)c2n1 [Example 37]; 50 to 500 nM

Query: Return the recorded IC50 value; entry: CC1(C)OCCn2c1cc1c(NC(=O)c3ccc(NS(=O)(=O)CCO)cc3N3CCC(=C(F)F)CC3)cccc12 [Compound 395]
Reply: ≤ 50 nM

Query: Return the recorded IC50 value; entry: O=C(Nc1cccc2c1cc1n2CCC(F)(F)C1)c1ccc(NS(=O)(=O)CCO)cc1N1CCC2(CC1)CC2 [Example 128]
Reply: ≤ 50 nM

Query: Return the recorded IC50 value; entry: O=C(Nc1cccc2c1CCN2CC1CC1)c1ccc(NS(=O)(=O)CCO)cc1OC1CCCC1 [Example 30]
Reply: 500 to 5000 nM

Query: Return the recorded IC50 value; entry: [2H]C([2H])([2H])OC1c2cc3c(NC(=O)c4ccc(NS(=O)(=O)CCO)cc4N4CCC(=C(F)F)CC4)cccc3n2CCC1(F)F (single isomer, unassigned) [Compound 386-P1]
Reply: 500 to 5000 nM
